Parameter IC50: see the listing below.
molecular target: Hsp82 (Saccharomyces cerevisiae); assay: PK/LDH enzyme coupling test of the ATPase activity of Hsp82 (NADH decrease at 340 nm); assay type: biochemical; settings: 1 μM Hsp82, 250 μM ATP, 37° C., pyruvate kinase/lactate dehydrogenase coupling, read-out: Hsp82 ATPase IC50
Sequence (P02829 whole entry): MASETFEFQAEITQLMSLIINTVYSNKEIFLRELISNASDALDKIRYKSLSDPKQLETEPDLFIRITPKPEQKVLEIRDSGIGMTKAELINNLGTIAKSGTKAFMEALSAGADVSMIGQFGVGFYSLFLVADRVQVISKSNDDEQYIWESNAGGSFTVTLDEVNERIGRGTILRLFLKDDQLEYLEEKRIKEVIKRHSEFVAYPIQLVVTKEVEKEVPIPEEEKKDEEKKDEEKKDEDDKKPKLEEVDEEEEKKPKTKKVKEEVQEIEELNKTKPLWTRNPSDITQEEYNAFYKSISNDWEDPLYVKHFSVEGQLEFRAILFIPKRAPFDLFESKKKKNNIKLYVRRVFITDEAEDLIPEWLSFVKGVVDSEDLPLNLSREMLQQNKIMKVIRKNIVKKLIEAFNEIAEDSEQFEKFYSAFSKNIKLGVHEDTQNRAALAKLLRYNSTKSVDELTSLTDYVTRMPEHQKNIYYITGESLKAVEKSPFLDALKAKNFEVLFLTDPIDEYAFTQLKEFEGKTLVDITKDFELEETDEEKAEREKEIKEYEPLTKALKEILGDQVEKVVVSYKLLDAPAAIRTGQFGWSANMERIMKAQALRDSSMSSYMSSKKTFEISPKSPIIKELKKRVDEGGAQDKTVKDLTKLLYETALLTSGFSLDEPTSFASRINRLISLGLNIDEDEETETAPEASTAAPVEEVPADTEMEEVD

Sample answers from the record:
NC1c2ccccc2-c2c(-c3nc4ccc(F)cc4[nH]3)cccc21 (racemic) [Example 71]    10 to 100 µM
O=C(NC1c2ccccc2-c2c(-c3nc4ccc(F)cc4[nH]3)cccc21)c1cccc2ncccc12 (racemic) [Example 84]    1 to 10 µM
O=C(NC1c2ccccc2-c2c(-c3nc4ccncc4[nH]3)cccc21)c1c[nH]c2ncccc12 (racemic) [Example 99]    < 1 µM
NC(=O)CCNC(=O)NC1c2ccccc2-c2c(-c3nc4ccncc4[nH]3)cccc21 (racemic) [Example 79]    10 to 100 µM
CC(C)(C)OC(=O)Nc1cc(C(=O)NC2c3ccccc3-c3c(-c4nc5ccncc5[nH]4)cccc32)ccn1 (racemic) [Example 125]    < 1 µM

Find the recorded IC50 belonging to O=C(Cc1cccnc1)NC1c2ccccc2-c2c(-c3nc4cnccc4[nH]3)cccc21 (racemic) [Example 21] and report it.
1 to 10 µM

Query (molecule): FC1c2ccccc2-c2c(-c3nc4cnccc4[nH]3)cccc21 (racemic) [Example 10] ; field requested: IC50
1 to 10 µM

Quick check: IC50 of O=C(NC1c2ccccc2-c2c(-c3nc4ccncc4[nH]3)cccc21)c1ccc2[nH]c(=O)[nH]c2c1 (racemic) [Example 43] ?
10 to 100 µM

Value source: patent US7674795B2
